Catalogue of IC50 readings, one per entry.
test system: Trypanosoma cruzi; assay: Antitrypanosomal activity against Trypanosoma cruzi Tulahuen C4 infected in african green monkey Vero cells assessed as growth inhibition of […] by beta-galactosidase reporter gene assay; assay type: functional, organism-based
Answer format: numeric, µM implied, no suffix.

[
  {
    "compound": "C=C[C@H]1CC[C@H]2[C@@H]3CC=C4C[C@@H](O[C@@H]5OC[C@@H](OC(C)=O)[C@@H](O)[C@@H]5O)CC[C@]4(C)[C@H]3CC[C@]12C",
    "test target": "Trypanosoma cruzi",
    "unit abbreviation": "µM",
    "recorded value": 101
  },
  {
    "compound": "C=C[C@H]1CC[C@H]2[C@@H]3CC=C4C[C@@H](O[C@@H]5OC[C@@H](OC(C)=O)[C@@H](OC(C)=O)[C@@H]5OC(C)=O)CC[C@]4(C)[C@H]3CC[C@]12C",
    "test target": "Trypanosoma cruzi",
    "unit abbreviation": "µM",
    "recorded value": 28
  }
]

Then there is this compound:
Give its IC50 value. Item: CC1CS(=O)(=O)CCN1/N=C/c1ccc([N+](=O)[O-])o1 (configuration not stated)
11

====

system: Plasmodium falciparum; assay: Antiplasmodial activity against chloroquine-resistant Plasmodium falciparum W2 as parasite DNA microfluorimetric assay; format: functional, organism-based
test readout: pIC50
Formally, pIC50 is defined as -log10 of the concentration c, with c in mol/L.

# example entries with known answers
[
  {
    "molecule": "CO[C@H]1O[C@H](C)[C@H](OC(=O)c2ccccc2)[C@H](OC(=O)c2ccccc2)[C@H]1OC(=O)c1ccccc1",
    "test readout": "pIC50",
    "recorded value": 4.37
  },
  {
    "molecule": "CCCCCCC(O)CCCCCCCCCCC(=O)NCCc1ccc(O)cc1 (centres undefined)",
    "test readout": "pIC50",
    "recorded value": 4.21
  },
  {
    "molecule": "CO[C@@H]1O[C@H](C)[C@H](OC(=O)c2ccccc2)[C@H](OC(=O)c2ccccc2)[C@H]1OC(=O)c1ccccc1",
    "test readout": "pIC50",
    "recorded value": 4.44
  }
]

Then there is this molecule:
Test system Plasmodium falciparum; read-out pIC50; what value for O=C(CCCCC(=O)NCCc1ccc(O)cc1)NCCc1ccc(O)cc1 ?
3.93

====

test system: Plasmodium falciparum; assay: Antiplasmodial activity against chloroquine-resistant Plasmodium falciparum W2 as parasite DNA microfluorimetric assay; type: functional, organism-based
test readout: IC50

[
  {
    "compound": "O=C(NCCc1ccc(OC(=O)c2ccccc2)cc1)c1ccccc1",
    "IC50": "64 µM"
  }
]

Give its IC50 value. Item: CO[C@@H]1OC[C@H](OC(C)=O)[C@H](OC(C)=O)[C@H]1OC(C)=O
> 50 µM

# repeat for CO[C@@H]1OC[C@H](OC(=O)c2ccccc2)[C@H](OC(=O)c2ccccc2)[C@H]1OC(=O)c1ccccc1
21 µM

====

system: Plasmodium falciparum; test: Antiplasmodial activity against chloroquine-resistant Plasmodium falciparum W2 as parasite DNA microfluorimetric assay; type: functional, organism-based
Catalogue of IC50 readings, one per entry.

# example entries with known answers
[
  {
    "smiles repr": "O=CNCCc1ccc(O)cc1",
    "test target": "Plasmodium falciparum",
    "IC50": "> 50 µM"
  },
  {
    "smiles repr": "CO[C@@H]1O[C@H](COC(=O)c2ccccc2)[C@H](OC(=O)c2ccccc2)[C@H](OC(=O)c2ccccc2)[C@H]1OC(=O)c1ccccc1",
    "test target": "Plasmodium falciparum",
    "IC50": "> 50 µM"
  },
  {
    "smiles repr": "CC(=O)O/C1=C/Cc2c(C)coc2C/C(C)=C/CC1",
    "test target": "Plasmodium falciparum",
    "IC50": "> 50 µM"
  },
  {
    "smiles repr": "CC[C@H](O)CC(=O)NCCc1ccc(O)cc1",
    "test target": "Plasmodium falciparum",
    "IC50": "> 50 µM"
  }
]

Then there is this compound:
Give its IC50 value. Item: CCCCCCCCCCCC(=O)O[C@@H]1[C@@H](OC(=O)CCCCCCCCCCC)[C@@H](OC)OC[C@@H]1OC(=O)CCCCCCCCCCC
> 50 µM

====

tested on: Plasmodium falciparum; assay: Antiplasmodial activity against chloroquine-resistant Plasmodium falciparum W2 as parasite DNA microfluorimetric assay; assay type: functional, organism-based
Catalogue of pIC50 readings, one per entry.
Formally, pIC50 is defined as -log10 of the concentration c, with c in mol/L.

# example entries with known answers
[
  {
    "molecule": "CCCCCCCCC/C(C)=C\\C(=O)NCCc1ccc(O)cc1",
    "test target": "Plasmodium falciparum",
    "pIC50": 4.44
  },
  {
    "molecule": "CCCCCCCCCCCC(=O)NCCc1cc(Br)c(O)c(Br)c1",
    "test target": "Plasmodium falciparum",
    "pIC50": 4.77
  },
  {
    "molecule": "CCCCCCCCCCCCCC(=O)NCCc1ccc(O)cc1",
    "test target": "Plasmodium falciparum",
    "pIC50": 4.47
  }
]

Give its pIC50 value. Item: CCCCCCCCCC(C)CC(=O)NCCc1ccc(O)cc1 (configuration not stated)
4.35

# repeat for C=C[C@H]1CC[C@H]2[C@@H]3CC=C4C[C@@H](O[C@@H]5OC[C@@H](OC(C)=O)[C@@H](O)[C@@H]5O)CC[C@]4(C)[C@H]3CC[C@]12C
4.10

# repeat for C=C[C@]1(C)Cc2occ(C)c2C[C@H]1C(=C)OC(C)=O
4.38

# repeat for CCCCCCCCCC(=O)NCCc1ccc(O)cc1
4.14

# repeat for CCCCCCCCCCCCNC(=O)CCc1ccc(O)cc1
4.62

# repeat for C=C[C@H]1CC[C@H]2[C@@H]3CC=C4C[C@@H](O[C@@H]5OC[C@@H](OC(C)=O)[C@@H](OC(C)=O)[C@@H]5OC(C)=O)CC[C@]4(C)[C@H]3CC[C@]12C
4.55

# repeat for CCCCCCCCCCCC(=O)NCCc1ccc(O)cc1
4.33

# repeat for NCCc1ccc(O)cc1
3.80

# repeat for CO[C@H]1O[C@H](COC(=O)c2ccccc2)[C@H](OC(=O)c2ccccc2)[C@H](OC(=O)c2ccccc2)[C@H]1OC(=O)c1ccccc1
4.54

# repeat for CO[C@H]1OC[C@H](OC(=O)c2ccccc2)[C@H](OC(=O)c2ccccc2)[C@H]1OC(=O)c1ccccc1
4.46

====

Catalogue of IC50 readings, one per entry.
tested on: Plasmodium falciparum; assay: Antiplasmodial activity against chloroquine-resistant Plasmodium falciparum W2 as parasite DNA microfluorimetric assay; type: functional, organism-based

[
  {
    "compound": "O=C(NCCc1ccc(O)cc1)c1ccccc1",
    "test target": "Plasmodium falciparum",
    "recorded value": "> 50 µM"
  }
]

Give its IC50 value. Item: O[C@@H]1[C@@H](O)[C@@H](O)CO[C@H]1O [L-ARABINOSE]
> 50 µM

# repeat for CC(=O)NCCc1ccc(O)cc1
> 50 µM

# repeat for CCCCO[C@@H]1OC[C@H](OC(C)=O)[C@H](OC(C)=O)[C@H]1OC(C)=O
> 50 µM
